Reference source: the supplement of paper PMC12855868

B1: library; numbered along this chain (parent)
chain: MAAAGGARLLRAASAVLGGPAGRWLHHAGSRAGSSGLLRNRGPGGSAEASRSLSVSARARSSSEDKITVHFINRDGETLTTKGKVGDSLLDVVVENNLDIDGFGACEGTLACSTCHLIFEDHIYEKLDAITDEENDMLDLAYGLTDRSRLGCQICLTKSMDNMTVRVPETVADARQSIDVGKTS

variants of: B1; assay: scaled log2 fold change in cell abundance, elesclomol vs control (0 = silent mean, 1 = nonsense mean) (scaled log2 ratio); higher = higher viability under elesclomol (loss of FDX1 cuproptosis function); settings: with HEK293T FDX1 KO; elesclomol 40 nM; glucose 10 mM; 11 days;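 note: variant abundance is its share of total variant reads in each endpoint sample, from next-generation sequencing of the integrated ORF PCR-amplified out of genomic DNA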
Measurement Label: scaled log2 fold change
Could you respond with only the numeric value?

Input V165E . Output scaled log2 fold change: 1.35

Kindly note the recorded scaled log2 fold change for D136H , which is 0.766

The value of scaled log2 fold change measured for the variant A174P turned out to be -0.277

Record summary for G19T : reported scaled log2 fold change = 0.837

Form: variant = P43H ; scaled log2 fold change = -0.548

Quick note, scaled log2 fold change for G36E landed at 0.257

Summary for this variant, F71S : scaled log2 fold change is 1.08

The variant listed as D101W shows scaled log2 fold change equal to -0.257

Value of scaled log2 fold change reported for the variant T183G is -1.07

Short answer for H122I : scaled log2 fold change was 1.13

The value of scaled log2 fold change measured for the variant S54W turned out to be -0.341

The reported value for T78S in terms of scaled log2 fold change is 0.487

Reported scaled log2 fold change ( L156H ) = 1.03

So, G108S ? Its scaled log2 fold change was 0.952

Consider V16F . Its measured scaled log2 fold change is 0.654

D132T has a reported scaled log2 fold change of -0.282

Quick note, scaled log2 fold change for L98Q landed at -0.327

Sure, the documented scaled log2 fold change for C112N is 1.22

// field: scaled log2 fold change; key: L138P ; value = 0.887

For T80F the variant record lists scaled log2 fold change as -0.712

Given item C112L , the value recorded as its scaled log2 fold change is 1.26

Value of scaled log2 fold change reported for the variant S63A is 0.763

Measured scaled log2 fold change of N162V : 0.0858

# scaled log2 fold change of T114W = 0.814

Given item S30Q , the value recorded as its scaled log2 fold change is -0.23

For reference, reported scaled log2 fold change for L127M stands at 0.302

Value of measured scaled log2 fold change for the entry E125V : -0.317

Noted for T170N : its scaled log2 fold change reads 0.953

So, L38P ? Its scaled log2 fold change was 0.667

Consider T80C . Its measured scaled log2 fold change is -0.291

Reported scaled log2 fold change of I72W : 1.02

// scaled log2 fold change value for F119R : 0.953

Recorded result, I67Y , scaled log2 fold change: -0.731

Memo: L17G , reported scaled log2 fold change: -0.178

Given item L140G , the value recorded as its scaled log2 fold change is 0.395

Short answer for V171R : scaled log2 fold change was -0.328

scaled log2 fold change measured on V94S = -1

The variant T81W showed scaled log2 fold change equal to -0.543

Just so you know, measured scaled log2 fold change for D132C came out at -0.0904

get_value(item= S34P , readout=scaled log2 fold change) returns -0.116

// recorded scaled log2 fold change for L89R : 0.853

Memo: D65H , reported scaled log2 fold change: 0.0338

get_value(item= G44P , readout=scaled log2 fold change) returns 0.309

Record H27W , field scaled log2 fold change: 0.305

Sample D65C ; scaled log2 fold change observed: -0.327

Form field scaled log2 fold change, entry D173H : -0.579

// L144T : scaled log2 fold change value = -0.511

Reported scaled log2 fold change of M163V : 0.941

The variant listed as I178T has a reported scaled log2 fold change of -0.626

// field: scaled log2 fold change; key: D128Y ; value = 0.0308

Recorded result, I178M , scaled log2 fold change: 0.0752

So, G102D ? Its scaled log2 fold change was -0.526

variant R149M , scaled log2 fold change observed: 0.499

Quick note, scaled log2 fold change for S159D landed at -0.414

Recorded scaled log2 fold change (variant G83T ): -0.4

Per the records, this variant ( L53K ) has scaled log2 fold change equal to 0.00452

GET /value?item= S62R &field=scaled log2 fold change returns 0.128

Given item G108W , the value recorded as its scaled log2 fold change is 0.989

Query T80E yields scaled log2 fold change of -0.0351

Recorded scaled log2 fold change (variant Q153E ): 1.2

For this variant ( A28W ), measured scaled log2 fold change is 0.863

Recorded scaled log2 fold change (variant A2D ): 0.487

Data point: D91S ; scaled log2 fold change = 0.774

// recorded scaled log2 fold change for E169L : -0.347

Measured scaled log2 fold change, M137A : 0.285

The variant listed as P20I shows scaled log2 fold change equal to 0.171

The variant listed as C155E has a reported scaled log2 fold change of -0.236

Value of measured scaled log2 fold change for the entry A47F : 1.03

Record Y124G . Reported scaled log2 fold change: 0.69

Form: variant = G22H ; scaled log2 fold change = 0.022

Briefly, scaled log2 fold change measured for A59I : 0.473

The reported scaled log2 fold change of the variant D87G was -0.147

Looking up E169W , I found its scaled log2 fold change recorded as 0.73

scaled log2 fold change for A13R is 0.251

// scaled log2 fold change lookup, variant = E77W , result: 0.815

Form: variant = R149E ; scaled log2 fold change = 1.11

Form: variant = A111I ; scaled log2 fold change = -0.0909

Lookup result for E125H ; measured scaled log2 fold change: -0.234

scaled log2 fold change reading for G44E : 1.12

// field: scaled log2 fold change; key: R11A ; value = -0.22

scaled log2 fold change reported for this variant G86Q : 0.928

Please fill in: scaled log2 fold change reported for F103A = 0.527

Item: K84H | scaled log2 fold change: 0.273

get_value(item= G151Q , readout=scaled log2 fold change) returns 1.05

scaled log2 fold change measured on R11I = -0.673

Sample R11E ; scaled log2 fold change observed: -0.275

The variant listed as I123C shows scaled log2 fold change equal to 0.505

Record summary for S184M : reported scaled log2 fold change = 0.661

Note to self: scaled log2 fold change recorded for Q176P was 0.159
